Sourced from patent US20250170141A1

test: Solubility Studies in FaSSIF, FeSSIF, FaSSGF (24 hours, room temperature, UPLC-UV); format: physicochemical; settings: fassgf or other biorelevant, kinetic from dmso stock; solubility in FaSSGF, 24 hours at room temperature; read-out: FaSSGF
TEST READOUT: solubility kinetic at 24 h

Illustrative cases are given below, each with its answer.
C[C@@H](c1ccccc1F)c1c(F)c(F)cc2c1NC(NCc1ncccc1F)=NS2(=O)=O [Compound 10-6A] ... 27 µM
CC(c1ccccc1F)c1c(F)ccc2c1NC(NCc1cccc(F)n1)=NS2(=O)=O (single isomer, unassigned) [Compound 10-2B] ... 11 µM

Okay, next one:
Query: Indicate the recorded solubility kinetic at 24 h value for this compound: O=S1(=O)N=C(NCc2ncccc2F)Nc2c1ccc(F)c2Oc1ccccc1Cl [Compound 2-1]
Result: < 12.5 µM

====

Molecular target: UniProt:Q96LB1
Sequence (Q96LB1 1-330): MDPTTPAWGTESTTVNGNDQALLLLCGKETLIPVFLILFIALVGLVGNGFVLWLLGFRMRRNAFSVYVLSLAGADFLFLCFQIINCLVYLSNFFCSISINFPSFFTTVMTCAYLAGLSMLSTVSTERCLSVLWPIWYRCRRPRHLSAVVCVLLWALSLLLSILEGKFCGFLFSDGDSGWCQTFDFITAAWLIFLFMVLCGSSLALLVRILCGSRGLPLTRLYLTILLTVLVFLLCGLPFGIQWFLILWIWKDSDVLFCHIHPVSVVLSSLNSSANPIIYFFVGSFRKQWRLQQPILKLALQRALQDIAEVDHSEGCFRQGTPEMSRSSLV
Assay: MRGPRX2 activity: IP-One Gq HTRF assay in CHO cells, antagonism versus 0.3 uM Cortistatin-14
Conditions: versus 0.3 uM Cortistatin-14 agonist, CHO cells expressing human MRGPRX2, read-out: MRGPRX2 Antagonist Activity
pIC50: −log10 of the molar value.
Listed below: pIC50 values for each entry.

Illustrative cases are given below, each with its answer.
O=S1(=O)N=C(NCc2ncccc2F)Nc2c1ccc(F)c2Oc1ccc(F)cc1F [Compound 1-39] ... > 7.00
O=S1(=O)N=C(NCc2ccccc2F)Nc2c(Cc3ccccc3)cccc21 [Compound 6-3] ... > 7.00
COc1cccnc1CNC1=NS(=O)(=O)c2cccc(Cc3ccccc3Cl)c2N1 [Compound 12-25] ... > 7.00
O=S1(=O)N=C(NCc2cc(F)ccc2F)Nc2c1cc(F)c(F)c2Cc1ccccc1Cl [Compound 4-10] ... 6.30 to 7.00
Cc1cccnc1CNC1=NS(=O)(=O)c2ccc(F)c(Oc3ccccc3Cl)c2N1 [Compound 1-32] ... 6.30 to 7.00

Query: Indicate the recorded pIC50 value for this compound: O=S1(=O)N=C(NCc2ncccc2F)Nc2c1ccc(F)c2Oc1cccc(F)c1Cl [Compound 1-19]
Result: > 7.00

Query: Indicate the recorded pIC50 value for this compound: N#Cc1ccc(Oc2c(F)ccc3c2NC(NCc2ncccc2F)=NS3(=O)=O)cc1 [Compound 2-12]
Result: 5.60 to 6.00

Query: Indicate the recorded pIC50 value for this compound: Cc1ccc(C(C)c2c(F)ccc3c2NC(NCc2cccc(F)c2)=NS3(=O)=O)cn1 (stereo not drawn) [Compound 22-24]
Result: > 7.00

Query: Indicate the recorded pIC50 value for this compound: O=S1(=O)N=C(NCc2cccnc2F)Nc2c1cc(F)c(F)c2Cc1ccccc1Cl [Compound 4-7]
Result: 5.60 to 6.00

====

Listed below: pIC50 values for each entry.
target: human MRGPRX2 (Homo sapiens, UniProt Q96LB1); experiment: MRGPRX2 activity: IP-One Gq HTRF assay in CHO cells, antagonism versus 0.3 uM Cortistatin-14; settings: versus 0.3 uM Cortistatin-14 agonist, CHO cells expressing human MRGPRX2, read-out: MRGPRX2 Antagonist Activity
pIC50: −log10 of the molar value.

Illustrative cases are given below, each with its answer.
O=S1(=O)N=C(NCc2ncccc2F)Nc2c1ccc(F)c2Oc1ccc(F)cc1Cl [Compound 1-18] ... > 7.00
CC(c1ccccc1Cl)c1c(F)ccc2c1NC(NCc1ncccc1F)=NS2(=O)=O (centres unmarked) [Compound 8-1] ... > 7.00
CC(c1ccccc1F)c1c(F)ccc2c1NC(NCc1ncccc1F)=NS2(=O)=O (single isomer, unassigned) [Compound 10-1B] ... > 7.00
CCC(c1ccccc1F)c1cccc2c1NC(NCc1ncccc1F)=NS2(=O)=O (centres unmarked) [Compound 21-1] ... > 7.00
O=S1(=O)N=C(NCc2cccc(F)n2)Nc2c1ccc(F)c2Cc1ccccc1Cl [Compound 4-2] ... 6.30 to 7.00

Query: Indicate the recorded pIC50 value for this compound: CCC(c1ccccc1F)c1c(F)ccc2c1NC(NCc1ncccc1F)=NS2(=O)=O (centres unmarked) [Compound 20-1]
Result: > 7.00

Query: Indicate the recorded pIC50 value for this compound: O=S1(=O)N=C(NCc2ncccc2F)Nc2c(Oc3ccccc3Cl)c(F)cc(Cl)c21 [Compound 1-41]
Result: 6.30 to 7.00

Query: Indicate the recorded pIC50 value for this compound: COc1ccc(F)c(CNC2=NS(=O)(=O)c3ccc(F)c(Oc4ccccc4Cl)c3N2)c1 [Compound 1-20]
Result: 5.60 to 6.00

Query: Indicate the recorded pIC50 value for this compound: O=S1(=O)N=C(NCc2ncccc2F)Nc2c1ccc(F)c2Cc1ccccc1Cl [Compound 4-1]
Result: > 7.00

Query: Indicate the recorded pIC50 value for this compound: CC(c1ccccc1F)c1c(F)ccc2c1NC(NCc1ccccc1F)=NS2(=O)=O (centres unmarked) [Compound 7-5]
Result: > 7.00

Query: Indicate the recorded pIC50 value for this compound: COc1cccc(C(C)c2c(F)ccc3c2NC(NCc2cccc(F)c2)=NS3(=O)=O)n1 (centres unmarked) [Compound 22-6]
Result: > 7.00

Query: Indicate the recorded pIC50 value for this compound: CC(c1ccccc1)c1c(F)ccc2c1NC(NCc1cccc(F)c1)=NS2(=O)=O (centres unmarked) [Compound 22-1]
Result: > 7.00

Query: Indicate the recorded pIC50 value for this compound: O=S1(=O)N=C(NCc2ncccc2F)Nc2c1ccc(F)c2CCc1ccccc1Cl [Compound 11-1]
Result: 6.30 to 7.00

====

target: human MRGPRX2 (Homo sapiens); test: MRGPRX2 activity: IP-One Gq HTRF assay in CHO cells, antagonism versus 0.3 uM Cortistatin-14; settings: versus 0.3 uM Cortistatin-14 agonist, CHO cells expressing human MRGPRX2, read-out: MRGPRX2 Antagonist Activity
pIC50: −log10 of the molar value.
Listed below: pIC50 values for each entry.

Query: Indicate the recorded pIC50 value for this compound: O=S1(=O)N=C(NCc2cccc(Cl)c2)Nc2c(Cc3ccccc3Cl)cccc21 [Compound 12-16]
Result: > 7.00

Query: Indicate the recorded pIC50 value for this compound: O=S1(=O)N=C(NCc2ncccc2O)Nc2c1cc(F)c(F)c2Cc1ccccc1Cl [Compound 4-18]
Result: < 5.60

Query: Indicate the recorded pIC50 value for this compound: O=S1(=O)N=C(N2CCc3cccnc3C2)Nc2c1ccc(F)c2Oc1ccccc1Cl [Compound 1-52]
Result: < 5.60

Query: Indicate the recorded pIC50 value for this compound: Cc1cc(F)ccc1CNC1=NS(=O)(=O)c2cccc(Cc3ccccc3Cl)c2N1 [Compound 12-7]
Result: > 7.00

Query: Indicate the recorded pIC50 value for this compound: COc1ccncc1CNC1=NS(=O)(=O)c2cccc(Cc3ccccc3Cl)c2N1 [Compound 12-26]
Result: 5.60 to 6.00

Query: Indicate the recorded pIC50 value for this compound: C=C(c1ccccc1F)c1cccc2c1NC(NCc1ncccc1F)=NS2(=O)=O [Compound 13-2]
Result: > 7.00

Query: Indicate the recorded pIC50 value for this compound: O=S1(=O)N=C(NCc2ncccc2C(F)(F)F)Nc2c1ccc(F)c2Oc1ccccc1Cl [Compound 1-26]
Result: 5.60 to 6.00

Query: Indicate the recorded pIC50 value for this compound: CC(Cc1ccc(F)cc1)c1c(F)ccc2c1NC(NCc1cccc(F)c1)=NS2(=O)=O (stereo not shown) [Compound 22-17]
Result: > 7.00

Query: Indicate the recorded pIC50 value for this compound: Cc1c(F)cccc1CNC1=NS(=O)(=O)c2ccc(F)c(C(C)c3cccc(F)c3Cl)c2N1 (stereo not shown) [Compound 7-2]
Result: > 7.00

Query: Indicate the recorded pIC50 value for this compound: CC(c1c(F)ccc2c1NC(NCc1cccc(F)c1)=NS2(=O)=O)C1CCCCC1 (stereo not shown) [Compound 22-5]
Result: > 7.00
